Hey, just so you know, these numbers are from the NIST ThermoML archive (doi:10.1016/j.jct.2009.11.004).

Conditions: 353.15 K; 101.33 kPa; Liquid; Concentric cylinders viscometry
Property: viscosity (mPa·s)

INSERT INTO assay_data (compound, result_number) VALUES
  ('CCCCCCCC[n+]1ccccc1.O=S(=O)([N-]S(=O)(=O)C(F)(F)F)C(F)(F)F [1-octylpyridinium bis((trifluoromethyl)sulfonyl)amide]', 15.02),
  ('CCCC[n+]1ccccc1.O=S(=O)([N-]S(=O)(=O)C(F)(F)F)C(F)(F)F [1-butylpyridinium bis[(trifluoromethyl)sulfonyl]imide]', 10.59),
  ('CCCCCCCCCCCC[n+]1ccccc1.O=S(=O)([N-]S(=O)(=O)C(F)(F)F)C(F)(F)F [1-dodecylpyridinium bis(trifluoromethylsulfonyl)imide]', 21.03),
  ('CCCCCCCCCC[n+]1ccccc1.O=S(=O)([N-]S(=O)(=O)C(F)(F)F)C(F)(F)F [1-decylpyridinium bis(trifluoromethylsulfonyl)imide]', 17.85);

====

Conditions: 348.15 K; 101.33 kPa; Liquid; Concentric cylinders viscometry
Property: viscosity (mPa·s)

INSERT INTO measurements (compound, result_number) VALUES
  ('CCCC[n+]1ccccc1.O=S(=O)([N-]S(=O)(=O)C(F)(F)F)C(F)(F)F [1-butylpyridinium bis[(trifluoromethyl)sulfonyl]imide]', 11.87),
  ('CCCCCCCC[n+]1ccccc1.O=S(=O)([N-]S(=O)(=O)C(F)(F)F)C(F)(F)F [1-octylpyridinium bis((trifluoromethyl)sulfonyl)amide]', 17.15),
  ('CCCCCCCCCC[n+]1ccccc1.O=S(=O)([N-]S(=O)(=O)C(F)(F)F)C(F)(F)F [1-decylpyridinium bis(trifluoromethylsulfonyl)imide]', 20.54),
  ('CCCCCCCCCCCC[n+]1ccccc1.O=S(=O)([N-]S(=O)(=O)C(F)(F)F)C(F)(F)F [1-dodecylpyridinium bis(trifluoromethylsulfonyl)imide]', 24.36);

====

Property: viscosity; scope: individual compounds
Settings: 338.15 K; 101.33 kPa; Liquid; Concentric cylinders viscometry
Property: viscosity (mPa·s)

INSERT INTO measurements (compound, result_number) VALUES
  ('CCCCCCCCCCCC[n+]1ccccc1.O=S(=O)([N-]S(=O)(=O)C(F)(F)F)C(F)(F)F [1-dodecylpyridinium bis(trifluoromethylsulfonyl)imide]', 33.59),
  ('CCCCCCCC[n+]1ccccc1.O=S(=O)([N-]S(=O)(=O)C(F)(F)F)C(F)(F)F [1-octylpyridinium bis((trifluoromethyl)sulfonyl)amide]', 22.89),
  ('CCCC[n+]1ccccc1.O=S(=O)([N-]S(=O)(=O)C(F)(F)F)C(F)(F)F [1-butylpyridinium bis[(trifluoromethyl)sulfonyl]imide]', 15.2),
  ('CCCCCCCCCC[n+]1ccccc1.O=S(=O)([N-]S(=O)(=O)C(F)(F)F)C(F)(F)F [1-decylpyridinium bis(trifluoromethylsulfonyl)imide]', 27.86);

====

Conditions: 318.15 K; 101.33 kPa; Liquid; Vibrating tube method
Property: mass density (kg/m3)

INSERT INTO measurements (compound, result_number) VALUES
  ('CCCCCCCC[n+]1ccccc1.O=S(=O)([N-]S(=O)(=O)C(F)(F)F)C(F)(F)F [1-octylpyridinium bis((trifluoromethyl)sulfonyl)amide]', 1309.6),
  ('CCCC[n+]1ccccc1.O=S(=O)([N-]S(=O)(=O)C(F)(F)F)C(F)(F)F [1-butylpyridinium bis[(trifluoromethyl)sulfonyl]imide]', 1429),
  ('CCCCCCCCCCCC[n+]1ccccc1.O=S(=O)([N-]S(=O)(=O)C(F)(F)F)C(F)(F)F [1-dodecylpyridinium bis(trifluoromethylsulfonyl)imide]', 1232.3),
  ('CCCCCCCCCC[n+]1ccccc1.O=S(=O)([N-]S(=O)(=O)C(F)(F)F)C(F)(F)F [1-decylpyridinium bis(trifluoromethylsulfonyl)imide]', 1266.8);
